- assay.details: method code SF-RC, from DOI: 10.1016/s0969-8051(00)00170-0, PMID: 11323238
- protocol.conditions: pH 7.4
quantity.kind: logD

INSERT INTO measurements (line_notation, endpoint_value) VALUES
  ('COc1cc2ncnc(N3CCC(n4c(=O)c5cc(C)ccc5n(C)c4=O)CC3)c2cc1OC', 3.14);

---

- assay.details: method code SF-RC, from DOI: 10.1016/s0969-8051(03)00053-2
- protocol.conditions: pH 7.4
quantity.kind: logD

INSERT INTO results (line_notation, endpoint_value) VALUES
  ('CCCn1c(=O)c2[nH]c(C3CCCC3)nc2n(C/C=C/I)c1=O', 2.96);
